- TESTED SYSTEM: Jak2 (UniProt O60674)
- Sequence (O60674 whole entry, looked up): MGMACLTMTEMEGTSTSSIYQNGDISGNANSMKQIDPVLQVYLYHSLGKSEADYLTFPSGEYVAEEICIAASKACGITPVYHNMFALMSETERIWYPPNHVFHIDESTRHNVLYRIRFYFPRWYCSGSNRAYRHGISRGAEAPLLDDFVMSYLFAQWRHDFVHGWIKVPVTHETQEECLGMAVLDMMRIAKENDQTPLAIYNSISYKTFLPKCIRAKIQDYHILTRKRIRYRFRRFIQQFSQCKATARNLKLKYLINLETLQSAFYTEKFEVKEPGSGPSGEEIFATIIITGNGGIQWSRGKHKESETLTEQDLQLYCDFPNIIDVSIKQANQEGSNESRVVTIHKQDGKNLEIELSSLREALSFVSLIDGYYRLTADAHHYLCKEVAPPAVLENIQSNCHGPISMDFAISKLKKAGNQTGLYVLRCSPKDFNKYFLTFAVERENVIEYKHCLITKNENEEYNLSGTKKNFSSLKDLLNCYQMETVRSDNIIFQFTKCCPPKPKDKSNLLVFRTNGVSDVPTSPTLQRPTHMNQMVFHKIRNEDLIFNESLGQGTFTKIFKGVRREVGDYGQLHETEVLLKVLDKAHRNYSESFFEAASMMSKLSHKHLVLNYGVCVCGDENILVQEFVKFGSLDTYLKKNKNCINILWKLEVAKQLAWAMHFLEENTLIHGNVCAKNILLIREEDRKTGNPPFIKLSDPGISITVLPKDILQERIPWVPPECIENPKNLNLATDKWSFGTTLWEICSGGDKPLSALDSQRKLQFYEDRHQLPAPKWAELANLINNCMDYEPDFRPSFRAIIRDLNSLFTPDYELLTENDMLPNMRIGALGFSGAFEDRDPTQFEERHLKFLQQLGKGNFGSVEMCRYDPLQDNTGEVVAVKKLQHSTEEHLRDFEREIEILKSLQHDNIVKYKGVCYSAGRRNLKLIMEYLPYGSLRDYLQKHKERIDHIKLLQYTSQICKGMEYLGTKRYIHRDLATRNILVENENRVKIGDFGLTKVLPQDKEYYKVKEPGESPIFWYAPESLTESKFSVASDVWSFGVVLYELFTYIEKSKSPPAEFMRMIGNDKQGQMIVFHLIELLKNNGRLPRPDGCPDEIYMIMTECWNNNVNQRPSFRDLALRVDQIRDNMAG
- METHOD SUMMARY: phosphorylation enrichment, bacterial display (enrichment ratio); higher = better substrate or ligand; peptides without Tyr show the background;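 also: 11-residue human phosphosite peptides and single-mutation variants displayed on the E. coli surface, counted by deep sequencing, each peptide's frequency after selection divided by its frequency in the unselected input library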;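 also: frequency after pTyr selection over input frequency; kinase dosed for 20-30% of maximal phosphorylation in three min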
Would you kindly list phosphorylation enrichment for each of these sequences?
Give bare numbers.

These recorded examples may help you get a feel for the data.
{"columns": ["RECORD SEQUENCE", "MEASUREMENT LABEL", "NUMERIC READOUT"],
 "data": [
  ["MSRDVYSIDFF [NTRK2_Y702_T704I_YF]", "phosphorylation enrichment", 0.889],
  ["LKRIAYFLCLL [LGI1_Y21]", "phosphorylation enrichment", 1.09],
  ["EEGNPYYSGAR [MCCC2_Y520_S523G]", "phosphorylation enrichment", 0.719],
  ["TDEYEYDELIV [TGM1_Y136]", "phosphorylation enrichment", 0.785],
  ["RYLKDYGEFEV [GINS1_Y156_C152Y]", "phosphorylation enrichment", 1.2],
  ["GDEVEYMSVSF [GCLC_Y53_L55S]", "phosphorylation enrichment", 1.11],
  ["DNEFAYLKAII [HNF4A_Y288_YF]", "phosphorylation enrichment", 0.91],
  ["DTERIYDDDFF [UBA1_Y560]", "phosphorylation enrichment", 1.63],
  ["QRRLVYYERGA [RYR1_Y245_G248R]", "phosphorylation enrichment", 0.391],
  ["VTQEQYELYCE [CBL_Y368]", "phosphorylation enrichment", 1.17]
]}

Parameters: items (list). Returns: phosphorylation enrichment for each item.
1. YDCKWYIPLTD [BCR_Y756]
2. IYHLSYLHNCE [PDE6B_Y227]
3. RLGLQYSQGLV [EIF2B4_Y214]

Response given:
1. 1.68
2. 1.26
3. 1.19

Go through the items and report each one's phosphorylation enrichment.
1. VRTGIYHGGEP [PIK3CA_Y361]
2. GPQGFYSNKLV [PTPN14_Y506_V505F]

Response given:
1: 0.558; 2: 0.445
